experiment: Pharmacokinetic study in mice, non-compartmental analysis; type: in vivo, Female BALB/c mice; conditions: female, BALB/c, mouse, plasma, iv, 50 mg/kg
parameter: Cmax (ng/mL)
Note: unit ng/mL is implicit; provide only the numeric part.

Enquiry: Fill in the blank: the reported Cmax of `Cc1[nH]nc(C(F)(F)F)c1Cc1sc2c(c1C(=O)N1C[C@](C)(O)CO1)c(=O)n(C)c(=O)n2C(C)C` is ____.
Return: 30100

* * *

assay: Pharmacokinetic study in mice, non-compartmental analysis; assay type: in vivo, Female BALB/c mice; conditions: female, BALB/c, mouse, plasma, iv, 50 mg/kg
parameter: Vd (L)
Note: unit L is implicit; provide only the numeric part.

Enquiry: Fill in the blank: the reported Vd of `Cc1[nH]nc(C(F)(F)F)c1Cc1sc2c(c1C(=O)N1C[C@](C)(O)CO1)c(=O)n(C)c(=O)n2C(C)C` is ____.
Return: 0.0256

Data origin: paper PMC8164216
